Data export: EC50 values recorded with UniProt Q8NFU7.
Structures can show the parent of a compound that is named as a salt.

Worked set:
| compound | EC50 |
| --- | --- |
| COC(=O)CCC(=O)C(=O)OC [dimethyl-2OG, dimethyl 2-oxoglutarate] | ~6700 µM |
| COC(=O)/C=C/C(=O)OC [dimethyl fumarate] | 316 µM |
| COC(=O)CNC(=O)C(=O)OC | 110 µM |
| COC(=O)CCC(=O)OC [dimethyl succinate] | ~3500 µM |

Field EC50 (UniProt Q8NFU7), entry CCCCCCCCOC(=O)[C@H](O)CCC(=O)O [octyl-(R)-2HG, R-Octyl-2-hydroxyglutarate] : ~1500 µM

Field EC50 (UniProt Q8NFU7), entry "O=C(O)c1ccc(O)c2ncccc12" : 10 µM

###

Each record here notes measured Cellular pEC50 TET1CD.
Target: TET1CD (Homo sapiens)
Sequence (Q8NFU7 1418-2136): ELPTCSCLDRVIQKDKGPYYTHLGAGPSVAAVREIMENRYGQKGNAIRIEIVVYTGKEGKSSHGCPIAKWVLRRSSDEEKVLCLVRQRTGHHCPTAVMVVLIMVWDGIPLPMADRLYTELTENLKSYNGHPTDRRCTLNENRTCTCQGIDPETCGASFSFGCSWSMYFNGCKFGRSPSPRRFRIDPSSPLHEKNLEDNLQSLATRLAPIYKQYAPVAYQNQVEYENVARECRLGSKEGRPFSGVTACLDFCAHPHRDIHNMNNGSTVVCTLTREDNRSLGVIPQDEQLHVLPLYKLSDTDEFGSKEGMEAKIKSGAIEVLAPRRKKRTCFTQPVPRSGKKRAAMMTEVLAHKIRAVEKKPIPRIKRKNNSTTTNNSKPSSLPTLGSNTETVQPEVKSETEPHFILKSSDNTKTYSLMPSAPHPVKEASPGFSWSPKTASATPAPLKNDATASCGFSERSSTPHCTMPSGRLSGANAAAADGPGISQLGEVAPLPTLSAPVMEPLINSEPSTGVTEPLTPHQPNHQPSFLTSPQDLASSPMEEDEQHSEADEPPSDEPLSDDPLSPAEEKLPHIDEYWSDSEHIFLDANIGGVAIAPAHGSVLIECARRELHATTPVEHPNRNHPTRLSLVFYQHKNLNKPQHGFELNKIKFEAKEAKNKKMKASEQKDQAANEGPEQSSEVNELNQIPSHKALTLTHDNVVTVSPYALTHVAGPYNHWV
Conditions: U2OS, 24 h with Dox induction, 5hmC IF; named compound dosed; replicates in parentheses

| molecule | property_name | result |
| --- | --- | --- |
| COC(=O)CCC(=O)OC [dimethyl succinate] | Cellular pEC50 TET1CD | 2.46 ± 0.10 (3) |
| Cc1[nH]c2ccccc2c1CCNCc1ccc(/C=C/C(=O)NO)cc1 | Cellular pEC50 TET1CD | <3 ^c(4) |
| CN(C)CCCNC(=O)c1ccc(-c2cc(O)c3ncccc3c2)cc1 | Cellular pEC50 TET1CD | 4.28 ± 0.42 (5) |

Alright, here's another molecule for you.
Field Cellular pEC50 TET1CD (TET1CD (Homo sapiens)), entry "Cc1nc(C(=O)NCC(=O)O)c(O)c2ccc(Oc3ccccc3)cc12" : <3 (3)

###

biological target: KDM6B (Homo sapiens, UniProt O15054)
Sequence (O15054 whole entry): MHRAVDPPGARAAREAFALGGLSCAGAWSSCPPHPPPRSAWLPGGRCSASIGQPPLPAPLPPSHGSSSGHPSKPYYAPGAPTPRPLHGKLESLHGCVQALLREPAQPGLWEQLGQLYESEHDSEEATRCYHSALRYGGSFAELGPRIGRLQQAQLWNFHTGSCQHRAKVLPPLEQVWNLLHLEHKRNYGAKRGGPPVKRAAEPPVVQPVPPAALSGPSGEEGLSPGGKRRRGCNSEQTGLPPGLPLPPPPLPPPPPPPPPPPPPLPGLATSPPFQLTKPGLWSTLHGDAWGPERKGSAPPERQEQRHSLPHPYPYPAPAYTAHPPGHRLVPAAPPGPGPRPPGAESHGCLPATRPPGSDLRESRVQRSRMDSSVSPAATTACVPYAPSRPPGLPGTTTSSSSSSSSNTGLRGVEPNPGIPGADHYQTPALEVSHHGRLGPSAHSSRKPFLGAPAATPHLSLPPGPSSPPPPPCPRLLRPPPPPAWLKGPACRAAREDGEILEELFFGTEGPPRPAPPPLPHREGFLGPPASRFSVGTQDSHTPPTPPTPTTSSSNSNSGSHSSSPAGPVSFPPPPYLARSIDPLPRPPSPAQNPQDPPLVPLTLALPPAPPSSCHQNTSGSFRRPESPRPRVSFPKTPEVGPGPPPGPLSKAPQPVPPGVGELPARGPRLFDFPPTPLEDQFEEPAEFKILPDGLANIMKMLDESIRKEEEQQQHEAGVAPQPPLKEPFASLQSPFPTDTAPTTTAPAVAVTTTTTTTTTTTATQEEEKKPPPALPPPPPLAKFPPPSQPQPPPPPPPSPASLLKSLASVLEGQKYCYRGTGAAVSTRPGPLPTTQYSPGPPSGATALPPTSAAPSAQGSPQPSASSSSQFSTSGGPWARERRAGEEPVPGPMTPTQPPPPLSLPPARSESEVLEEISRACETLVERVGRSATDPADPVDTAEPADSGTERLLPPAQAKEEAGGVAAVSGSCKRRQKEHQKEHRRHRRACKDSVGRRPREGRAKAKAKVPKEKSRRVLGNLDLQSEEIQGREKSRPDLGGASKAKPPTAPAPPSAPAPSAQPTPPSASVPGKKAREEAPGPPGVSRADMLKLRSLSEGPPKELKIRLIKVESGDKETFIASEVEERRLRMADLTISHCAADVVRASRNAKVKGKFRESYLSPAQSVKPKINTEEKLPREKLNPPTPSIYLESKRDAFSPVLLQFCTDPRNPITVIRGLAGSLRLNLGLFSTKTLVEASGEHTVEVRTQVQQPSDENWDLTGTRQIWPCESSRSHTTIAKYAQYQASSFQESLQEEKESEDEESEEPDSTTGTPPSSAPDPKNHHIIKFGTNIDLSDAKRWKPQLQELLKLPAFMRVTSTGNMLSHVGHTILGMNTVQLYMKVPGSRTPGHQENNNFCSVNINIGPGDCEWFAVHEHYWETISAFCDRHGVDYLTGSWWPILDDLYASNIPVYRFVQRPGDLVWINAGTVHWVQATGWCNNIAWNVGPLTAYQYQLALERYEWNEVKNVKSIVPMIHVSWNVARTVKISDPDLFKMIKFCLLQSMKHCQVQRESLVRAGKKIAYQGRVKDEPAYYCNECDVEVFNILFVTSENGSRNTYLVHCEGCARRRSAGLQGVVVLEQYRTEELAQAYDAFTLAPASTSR
property_name: Ki (µM)
Only the number, expressed in µM, is required.

| molecule | Ki (µM) |
| --- | --- |
| O=C(O)CC[C@H](O)C(=O)O [S-2HG, S-2-hydroxyglutarate] | 191 |

Alright, here's another molecule for you.
Field Ki (KDM6B (Homo sapiens, UniProt O15054)), entry O=C(O)CC[C@@H](O)C(=O)O [R-2HG, (2R)-hydroxyglutarate] : 89
